Some compounds, each annotated with its measured IC50.
system under test: Human MMP13 (Homo sapiens)
Construct: purchased Chemicon CC068
assay details: MMP13 inhibition experiment
Format: biochemical
condition notes: concentration required for 50% inhibition of enzyme activity; read-out: IC50 value MMP-13
# value in µM; strip the unit string

{"columns": ["compound", "system under test", "value kind", "recorded measurement"],
 "data": [
  ["Cc1cc(COc2ccc(S(=O)(=O)CC(CC3CCN(C(=O)c4ccccc4)CC3)N(O)C=O)cc2)c2ccccc2n1 (stereo not drawn) [Example I-50]", "Human MMP13 (Homo sapiens)", "IC50", 3],
  ["Cc1cc(COc2ccc(S(=O)(=O)CC(CN3CCN(S(C)(=O)=O)CC3)N(O)C=O)cc2)c2ccccc2n1 (stereo not drawn) [Example I-52]", "Human MMP13 (Homo sapiens)", "IC50", 40]
]}

Consider the additional compound presented here.
Task: Which IC50 is reported for this compound? Cc1cc(COc2ccc(S(=O)(=O)CC(C=C3CCC(=O)CC3)N(O)C=O)cc2)c2ccccc2n1 (stereo not drawn) [Example I-3]
Result: 22

====

Some molecules, each annotated with its measured pIC50.
system under test: Human MMP13 (Homo sapiens, UniProt P45452)
Construct: purchased Chemicon CC068
assay details: MMP13 inhibition experiment
Assay type: biochemical
condition notes: concentration required for 50% inhibition of enzyme activity; read-out: IC50 value MMP-13
Worth noting: pIC50 values are minus log10 of concentrations stated in mol/L.

Sample records with pIC50:
{"columns": ["molecule", "system under test", "recorded measurement"],
 "data": [
  ["CC(=O)N1CCC(C(CS(=O)(=O)c2ccc(OCc3cc(C)nc4ccccc34)cc2)N(O)C=O)CC1 (stereo not shown) [Example I-73]", "Human MMP13 (Homo sapiens, UniProt P45452)", 4.30],
  ["Cc1cc(COc2ccc(S(=O)(=O)CC(c3ccccc3C)N(O)C=O)cc2)c2cccc(F)c2n1 (stereo not shown) [Example I-124]", "Human MMP13 (Homo sapiens, UniProt P45452)", 5.24],
  ["Cc1cccc(CCC(CS(=O)(=O)c2ccc(OCc3cc(C)nc4ccccc34)cc2)N(O)C=O)n1 (stereo not shown) [Example I-129]", "Human MMP13 (Homo sapiens, UniProt P45452)", 4.77],
  ["CC(=O)N1CCCC(C(CS(=O)(=O)c2ccc(OCc3cc(C)nc4ccccc34)cc2)N(O)C=O)C1 (stereo not shown) [Example I-133]", "Human MMP13 (Homo sapiens, UniProt P45452)", 4.60],
  ["O=CN(O)C(C=C1CCC2(CC1)OCCO2)CS(=O)(=O)c1ccc(OCc2ccc3ccccc3n2)cc1 (stereo not shown) [Example I-83]", "Human MMP13 (Homo sapiens, UniProt P45452)", 4.64]
]}

Task: Missing value: pIC50, Human MMP13 (Homo sapiens, UniProt P45452), entry CCC(CC)C(=O)N1CCC(CC(CS(=O)(=O)c2ccc(OCc3cc(C)nc4ccccc34)cc2)N(O)C=O)C(C)C1 (stereo not shown) [Example I-64] . Fill in?
Result: 4.77

Task: Follow-up item: COc1cc(C)cc(COc2ccc(S(=O)(=O)CC(C=C3CCC(=O)CC3)N(O)C=O)cc2)c1 (stereo not shown) [Example I-94]
Result: 4.70

Task: Follow-up item: Cc1cc(COc2ccc(S(=O)(=O)CC(C=C3CCN(C=O)CC3)N(O)C=O)cc2)c2ccccc2n1 (stereo not shown) [Example I-43]
Result: 4.19
